system: Wolbachia pipientis; test: Anti-Wolbachia Cell-Based Screen; type: functional; design: scale not given: in the data most compounds retested in dose-response had high values; conditions: 5 µM
In all, about 48,000 compounds went through this assay and about 13,000 (27%) showed an effect of 50% or more. This is one part of the list.
Outcome Measure: Percent Effect (%)
Write down the numeric answer in % and omit the unit.

query: For the molecule CC(O)CN1CCN(Cc2coc(-c3ccccc3Cl)n2)CC1 (stereo unspecified) , what Percent Effect is on record?
result: 6.495

query: For the molecule "Cc1cccc(C(=O)N2C[C@@H]3[C@H](CC(=O)Nc4cccnc4)[C@@H]3C2)n1.O=C(O)C(F)(F)F.O=C(O)C(F)(F)F" , what Percent Effect is on record?
result: -1.772

query: For the molecule "OCCN1CCN(Cc2coc(-c3ccccc3)n2)CC1" , what Percent Effect is on record?
result: 106.5

query: For the molecule CNC(=O)C1(c2cnccn2)CCCN1C(=O)c1ccccc1 (stereo unspecified) , what Percent Effect is on record?
result: 95.42

query: For the molecule CC(O)CN1CCN(Cc2coc(-c3ccccc3)n2)CC1 (stereo unspecified) , what Percent Effect is on record?
result: -18.93

query: For the molecule "Cc1ccc(-c2nc(CN3CCn4c(nnc4C4CC4)C3)co2)cc1" , what Percent Effect is on record?
result: -3.724

query: For the molecule "Cc1cccc(C(=O)N2CCn3c(CN4CCN(C)CC4)cnc3C2)n1" , what Percent Effect is on record?
result: -13.05

query: For the molecule "OCCN1CCN(Cc2coc(-c3ccccc3Cl)n2)CC1" , what Percent Effect is on record?
result: 6.785

query: For the molecule CCN(Cc1ccc2cccc(O)c2n1)CC1CCCO1 (stereo unspecified) , what Percent Effect is on record?
result: 12.41

query: For the molecule "COc1ccc(-c2nc(CN3CCN(CCO)CC3)co2)cc1" , what Percent Effect is on record?
result: 6.071

query: For the molecule "O=C(c1cnn(-c2ccccc2)c1)N1CCN(c2cnccn2)CC1" , what Percent Effect is on record?
result: -7.881

From: ChEMBL document CHEMBL3988442
